Source listed as paper PMC8869731.

# Study target: KasQ Q95A (Streptomyces kasugaensis, UniProt A0A0K1H2R6, Q95A)
# Sequence (A0A0K1H2R6 entry or part of it Q95A): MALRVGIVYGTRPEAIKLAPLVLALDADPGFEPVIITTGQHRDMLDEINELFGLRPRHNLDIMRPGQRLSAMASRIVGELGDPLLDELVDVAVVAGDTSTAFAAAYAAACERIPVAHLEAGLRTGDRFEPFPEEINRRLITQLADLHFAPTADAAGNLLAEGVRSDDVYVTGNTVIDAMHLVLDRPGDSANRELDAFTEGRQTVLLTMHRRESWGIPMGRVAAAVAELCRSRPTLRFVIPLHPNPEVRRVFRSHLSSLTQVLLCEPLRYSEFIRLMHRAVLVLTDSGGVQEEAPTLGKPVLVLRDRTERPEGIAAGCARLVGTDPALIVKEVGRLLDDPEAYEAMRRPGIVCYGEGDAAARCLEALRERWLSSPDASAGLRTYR
# Assay overview: biochemical
Listing: Kd of selected compounds
Metric: Kd (µM)

> print(dat)
                                   compound  metric  unit  number
1  O=C(O)[C@H]1O[C@H](OP(=O)(O)OP(=O)(O)OC[C@H]2O[C@@H](n3ccc(=O)[nH]c3=O)[C@H](O)[C@@H]2O)[C@H](O)[C@@H](O)[C@@H]1O      Kd    µM    44.4
2  CC(=O)NC1C(OP(=O)(O)OP(=O)(O)OCC2OC(n3ccc(=O)[nH]c3=O)C(O)C2O)OC(CO)C(O)C1O (centres unmarked)      Kd    µM    45.2

* * *

# Study target: KasQ (Streptomyces kasugaensis)
# Sequence (A0A0K1H2R6 entry or part of it): as the sequence (A0A0K1H2R6 entry or part of it Q95A) above, with A95Q counted along it
# Assay overview: Isothermal titration calorimetry (ITC) of KasQ wild type versus substrates;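 note: titration of 1 mM substrate into 0.1 mM KasQ, 18 injections spaced 120 s, data fitted to a single-site binding model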
# Type: binding
# Settings: ITC; KasQ wild type
Metric: ∆S

Compound	Study target	Result
Nc1ncnc2c1ncn2[C@@H]1O[C@H](COP(=O)(O)OP(=O)(O)OP(=O)(O)O)[C@@H](O)[C@H]1O	KasQ (Streptomyces kasugaensis)	NBD
O=C[C@H](O)[C@@H](O)[C@@H](O)[C@H](O)CO	KasQ (Streptomyces kasugaensis)	NBD
Nc1nc2c(ncn2[C@@H]2O[C@H](COP(=O)(O)OP(=O)(O)O)[C@@H](O)[C@H]2O)c(=O)[nH]1	KasQ (Streptomyces kasugaensis)	NBD
CC(=O)NC1=CO[C@H](CO)[C@@H](O)[C@@H]1O	KasQ (Streptomyces kasugaensis)	NBD
Nc1nc2c(ncn2[C@@H]2O[C@H](COP(=O)(O)OP(=O)(O)O[C@H]3O[C@H](CO)[C@@H](O)[C@H](O)[C@@H]3O)[C@@H](O)[C@H]2O)c(=O)[nH]1	KasQ (Streptomyces kasugaensis)	NBD
Nc1ncnc2c1ncn2[C@@H]1O[C@H](COP(=O)(O)OP(=O)(O)O)[C@@H](O)[C@H]1O	KasQ (Streptomyces kasugaensis)	NBD
OC[C@H]1OC(O)[C@H](O)[C@@H](O)[C@@H]1O (some centres unmarked)	KasQ (Streptomyces kasugaensis)	NBD
NC1C(OP(=O)(O)OP(=O)(O)OCC2OC(n3ccc(=O)[nH]c3=O)C(O)C2O)OC(CO)C(O)C1O (centres unmarked)	KasQ (Streptomyces kasugaensis)	NBD
O=C(O)[C@H]1OC(O)[C@H](O)[C@@H](O)[C@H]1O (some centres unmarked)	KasQ (Streptomyces kasugaensis)	NBD
Nc1nc2c(ncn2[C@@H]2O[C@H](COP(=O)(O)OP(=O)(O)OP(=O)(O)O)[C@@H](O)[C@H]2O)c(=O)[nH]1	KasQ (Streptomyces kasugaensis)	NBD
Cc1cn([C@H]2C[C@H](O)[C@@H](COP(=O)(O)OP(=O)(O)O[C@H]3O[C@H](CO)[C@@H](O)[C@H](O)[C@H]3O)O2)c(=O)[nH]c1=O	KasQ (Streptomyces kasugaensis)	5.72 cal mol^−1 K^−1
OC[C@H]1OC(O)[C@@H](O)[C@@H](O)[C@@H]1O (some centres unmarked)	KasQ (Streptomyces kasugaensis)	NBD
Nc1nc2c(ncn2[C@@H]2O[C@H](COP(=O)(O)OP(=O)(O)OC3O[C@H](CO)[C@@H](O)[C@H](O)[C@H]3O)[C@@H](O)[C@H]2O)c(=O)[nH]1 (some centres unmarked)	KasQ (Streptomyces kasugaensis)	NBD
O=c1ccn([C@@H]2O[C@H](COP(=O)(O)OP(=O)(O)OP(=O)(O)O)[C@@H](O)[C@H]2O)c(=O)[nH]1	KasQ (Streptomyces kasugaensis)	−11.6 cal mol^−1 K^−1
CC(=O)NC1C(OP(=O)(O)OP(=O)(O)OCC2OC(n3ccc(=O)[nH]c3=O)C(O)C2O)OC(CO)C(O)C1O (centres unmarked)	KasQ (Streptomyces kasugaensis)	NBD
Nc1ncnc2c1ncn2[C@@H]1O[C@H](COP(=O)(O)O)[C@@H](O)[C@H]1O	KasQ (Streptomyces kasugaensis)	NBD
O=C(O)[C@H]1O[C@H](OP(=O)(O)OP(=O)(O)OC[C@H]2O[C@@H](n3ccc(=O)[nH]c3=O)[C@H](O)[C@@H]2O)[C@H](O)[C@@H](O)[C@@H]1O	KasQ (Streptomyces kasugaensis)	14.2 cal mol^−1 K^−1
